This collection of values is drawn from paper PMC10722499.

experiment_summary: Human coffee intervention study: plasma concentrations after roasted coffee brew by UPLC-MS/MS
Assay type: in vivo
measurement_context: human, plasma, oral, 200 mL, participant imhz, 10 h after coffee; read-out: plasma concentration, individual
measurement_kind: concentration at 10 h (nM)

compound	readout_units	concentration at 10 h
C=C1[C@@H]2CC[C@@H]3[C@@](CCC4[C@H](C(=O)O)C[C@@H](O)C[C@]43C)(C2)[C@@H]1O (stereo partly shown) [compound 1, atractyligenin]	nM	43.7

I = C=C1C2CCC3C4(C)CC(O)CC(C(=O)OC5OC(C(=O)O)C(O)C(O)C5O)C4CCC3(C2)C1O [M1, atractyligenin-19-O-β-D-glucuronide]
II = CC1C(=O)C23CCC4C(C(=O)O)CC(OC5OC(C(=O)O)C(O)C(O)C5O)CC4(C)C2CCC1C3 (stereo not shown) [M3]
III = CC1C(=O)C23CCC4C(C(=O)OC5OC(C(=O)O)C(O)C(O)C5O)CC(O)CC4(C)C2CCC1C3 (stereo not shown) [M2]
# input Put the items in order so that reported concentration at 10 h rises from first to last. A complete answer lists every label in the requested sequence.
# output III, II, I
